// data source = ChEMBL document CHEMBL1157938

- assayedTarget: UniProt:P11387
- Sequence (P11387 whole entry): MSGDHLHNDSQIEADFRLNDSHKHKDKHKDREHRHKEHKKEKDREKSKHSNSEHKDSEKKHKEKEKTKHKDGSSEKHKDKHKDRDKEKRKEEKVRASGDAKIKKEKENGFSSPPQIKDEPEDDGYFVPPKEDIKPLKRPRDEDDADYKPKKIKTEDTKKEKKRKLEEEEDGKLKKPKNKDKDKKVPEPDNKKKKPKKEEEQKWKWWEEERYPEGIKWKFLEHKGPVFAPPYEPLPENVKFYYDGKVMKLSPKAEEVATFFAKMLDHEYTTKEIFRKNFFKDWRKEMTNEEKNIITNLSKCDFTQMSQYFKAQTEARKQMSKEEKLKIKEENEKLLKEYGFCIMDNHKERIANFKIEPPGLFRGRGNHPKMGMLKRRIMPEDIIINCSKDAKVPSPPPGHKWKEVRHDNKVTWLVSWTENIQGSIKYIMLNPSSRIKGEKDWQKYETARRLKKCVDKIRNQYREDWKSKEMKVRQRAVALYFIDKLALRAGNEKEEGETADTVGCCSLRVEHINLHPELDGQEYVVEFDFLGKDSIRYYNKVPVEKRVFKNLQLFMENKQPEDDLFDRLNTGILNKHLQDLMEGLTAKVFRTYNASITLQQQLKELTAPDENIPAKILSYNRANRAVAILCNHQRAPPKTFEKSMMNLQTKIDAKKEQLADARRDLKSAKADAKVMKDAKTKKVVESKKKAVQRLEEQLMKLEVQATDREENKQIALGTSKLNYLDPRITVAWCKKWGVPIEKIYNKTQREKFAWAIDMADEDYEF
- measurementNotes: Inhibition of human DNA topoisomerase 1-mediated relaxation of supercoiled DNA by gel electrophoresis
pIC50: −log10 of the molar value.

| compound | qualifier | pIC50 |
| --- | --- | --- |
| C[C@H]1[C@H](C)CC[C@]2(C(=O)O)CC[C@]3(C(=O)O)C(=CC[C@@H]4[C@@]5(C)C[C@@H](O)[C@H](O)C(C)(C)[C@@H]5CC[C@]43C)[C@H]12 | < | 3.60 |
| C/C=C(/C)C(=O)O[C@H]1[C@H](OC(C)=O)[C@]2(CO)[C@H](O)[C@H](O)[C@]3(C)C(=CC[C@@H]4[C@@]5(C)CC[C@H](O[C@@H]6O[C@H](C(=O)O)[C@@H](O)[C@H](O[C@@H]7OC[C@@H](O)[C@H](O)[C@H]7O)[C@H]6O[C@@H]6O[C@H](CO)[C@@H](O)[C@H](O)[C@H]6O)C(C)(C)[C@@H]5CC[C@]43C)[C@@H]2CC1(C)C [ERYNGIIOSIDE J] | < | 3.60 |
| C/C=C(/C)C(=O)O[C@H]1[C@H](OC(=O)C(C)C)[C@]2(CO)[C@H](O)[C@H](O)[C@]3(C)C(=CC[C@@H]4[C@@]5(C)CC[C@H](O[C@@H]6O[C@H](C(=O)O)[C@@H](O)[C@H](O[C@@H]7O[C@@H](CO)[C@H](O)[C@H]7O)[C@H]6O[C@@H]6O[C@H](CO)[C@@H](O)[C@H](O)[C@H]6O)[C@](C)(CO)[C@@H]5CC[C@]43C)[C@@H]2CC1(C)C [AESCULIOSIDE IIIB] | = | 3.80 |
| C/C=C(\C)C(=O)O[C@H]1[C@H](OC(=O)C(C)CC)[C@]2(CO)[C@H](O)[C@H](O)[C@]3(C)C(=CC[C@@H]4[C@@]5(C)CC[C@H](O[C@@H]6O[C@H](C(=O)O)[C@@H](O)[C@H](O[C@@H]7O[C@@H](CO)[C@H](O)[C@H]7O)[C@H]6O[C@@H]6O[C@H](CO)[C@H](O)[C@H](O)[C@H]6O)C(C)(C)[C@@H]5CC[C@]43C)[C@@H]2CC1(C)C (stereo partly specified) [AESCULIOSIDE IIIC] | = | 3.88 |
| C/C=C(/C)C(=O)O[C@H]1[C@H](O)[C@]2(CO)[C@H](O)C[C@]3(C)C(=CC[C@@H]4[C@@]5(C)CC[C@H](O)[C@](C)(CO)[C@@H]5CC[C@]43C)[C@@H]2CC1(C)C | < | 3.60 |
| C/C=C(/C)C(=O)O[C@H]1[C@H](O)[C@]2(CO)[C@H](O)C[C@]3(C)C(=CC[C@@H]4[C@@]5(C)CC[C@H](O[C@@H]6O[C@H](C(=O)O)[C@@H](O)[C@H](O[C@@H]7O[C@@H](CO)[C@H](O)[C@H]7O)[C@H]6O)[C@](C)(CO)[C@@H]5CC[C@]43C)[C@@H]2CC1(C)C [AESCULIOSIDE IID] | = | 4.62 |
